- system-under-test: Albumin (Bos taurus)
- Sequence (P02769 whole entry): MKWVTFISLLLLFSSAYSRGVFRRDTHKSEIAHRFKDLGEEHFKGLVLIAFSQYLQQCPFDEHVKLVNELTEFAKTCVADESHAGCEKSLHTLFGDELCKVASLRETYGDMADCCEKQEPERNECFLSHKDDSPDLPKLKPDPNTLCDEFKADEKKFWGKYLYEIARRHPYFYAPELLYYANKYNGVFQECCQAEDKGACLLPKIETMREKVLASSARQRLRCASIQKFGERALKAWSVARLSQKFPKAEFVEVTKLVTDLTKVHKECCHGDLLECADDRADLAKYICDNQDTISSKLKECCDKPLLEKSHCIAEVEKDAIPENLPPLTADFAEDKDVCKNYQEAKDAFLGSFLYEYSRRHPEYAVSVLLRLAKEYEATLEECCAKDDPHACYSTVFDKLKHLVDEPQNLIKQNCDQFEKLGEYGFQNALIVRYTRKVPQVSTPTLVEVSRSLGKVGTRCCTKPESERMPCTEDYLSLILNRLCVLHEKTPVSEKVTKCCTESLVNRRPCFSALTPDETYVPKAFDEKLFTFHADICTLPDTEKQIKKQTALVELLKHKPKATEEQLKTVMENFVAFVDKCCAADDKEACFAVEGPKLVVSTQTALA
- measurement-notes: Binding affinity to bovine serum albumin assessed as red shift in emission intensity up to 20 uM by fluorescence spectroscopic analysis relative to control
- Format: ADME
- run-conditions: cattle, isolated protein
assay-endpoint: Activity (nm)
Report the figure in nm without appending any unit label.

Solved entries (count: 7):
OCCNc1nc(Nc2ccc(-c3nc4ccccc4[nH]3)cc2)nc(N2CCOCC2)n1 :: 23
CN1CCN(c2nc(Nc3ccc(-c4nc5ccccc5[nH]4)cc3)nc(N3CCOCC3)n2)CC1 :: 22
c1ccc2[nH]c(-c3ccc(Nc4nc(N5CCOCC5)nc(N5CCOCC5)n4)cc3)nc2c1 :: 24
c1ccc2[nH]c(-c3ccc(Nc4nc(N5CCCC5)nc(N5CCOCC5)n4)cc3)nc2c1 :: 22
c1ccc(CNc2nc(Nc3ccc(-c4nc5ccccc5[nH]4)cc3)nc(N3CCOCC3)n2)cc1 :: 24
Fc1ccc(-c2nc(Nc3ccc(-c4nc5ccccc5[nH]4)cc3)nc(N3CCOCC3)n2)cc1 :: 23
OCCN1CCN(c2nc(Nc3ccc(-c4nc5ccccc5[nH]4)cc3)nc(N3CCOCC3)n2)CC1 :: 25

# input molecule: NCCNc1nc(Nc2ccc(-c3nc4ccccc4[nH]3)cc2)nc(N2CCOCC2)n1 ; wanted: its Activity
22

* * *

Recorded measurements of growth at 10 µM, one per entry
- measurement-notes: Growth inhibition of human LOXIMVI cells assessed as cell growth at 10^-5 M incubated for 48 hrs by sulforhodamine B assay
- Type: functional
- run-conditions: LOX IMVI, read-out: Activity
Report the figure in % without appending any unit label.

c1ccc(-c2nc(Nc3ccc(-c4nc5ccccc5[nH]4)cc3)nc(N3CCOCC3)n2)cc1 :: -61
c1ccc2[nH]c(-c3ccc(Nc4nc(N5CCCCC5)nc(N5CCOCC5)n4)cc3)nc2c1 :: -72
Fc1ccc(-c2nc(Nc3ccc(-c4nc5ccccc5[nH]4)cc3)nc(N3CCOCC3)n2)cc1 :: -73

From here, focus on the item given below.
# input compound: Clc1ccc(-c2nc(Nc3ccc(-c4nc5ccccc5[nH]4)cc3)nc(N3CCOCC3)n2)cc1 ; wanted: its growth at 10 µM
-70

* * *

- Test system: SK-MEL-2
- measurement-notes: Growth inhibition of human SK-MEL-2 cells assessed as cell growth at 10^-6 M incubated for 48 hrs by sulforhodamine B assay
- Assay type: functional
- run-conditions: SK-MEL-2, 48 h, read-out: Activity
assay-endpoint: growth at 1 µM (%)
Report the figure in % without appending any unit label.

Solved entries (count: 3):
c1ccc2[nH]c(-c3ccc(Nc4nc(N5CCCCC5)nc(N5CCOCC5)n4)cc3)nc2c1 :: 101
Clc1ccc(-c2nc(Nc3ccc(-c4nc5ccccc5[nH]4)cc3)nc(N3CCOCC3)n2)cc1 :: 97
Fc1ccc(-c2nc(Nc3ccc(-c4nc5ccccc5[nH]4)cc3)nc(N3CCOCC3)n2)cc1 :: 99

From here, focus on the item given below.
# input compound: c1ccc(-c2nc(Nc3ccc(-c4nc5ccccc5[nH]4)cc3)nc(N3CCOCC3)n2)cc1 ; wanted: its growth at 1 µM
106

* * *

- measurement-notes: Growth inhibition of human OVCAR8 cells incubated for 48 hrs by sulforhodamine B assay
- Format: functional
- run-conditions: OVCAR-8, 48 h, read-out: pLC50 (the source's name) (converted)
Recorded measurements of CC50, one per entry
Report the figure in µM without appending any unit label.

Clc1ccc(-c2nc(Nc3ccc(-c4nc5ccccc5[nH]4)cc3)nc(N3CCOCC3)n2)cc1 :: 6.03

# input compound: c1ccc(-c2nc(Nc3ccc(-c4nc5ccccc5[nH]4)cc3)nc(N3CCOCC3)n2)cc1 ; wanted: its CC50
6.76
